Just for reference, paper PMC11931385 is where these values come from.

# pKd per entry
Target: T1, Rb^P L572I (human, UniProt P06400 380-788, L572I)
T1 construct: also called variant 31
T1 sequence (looked up): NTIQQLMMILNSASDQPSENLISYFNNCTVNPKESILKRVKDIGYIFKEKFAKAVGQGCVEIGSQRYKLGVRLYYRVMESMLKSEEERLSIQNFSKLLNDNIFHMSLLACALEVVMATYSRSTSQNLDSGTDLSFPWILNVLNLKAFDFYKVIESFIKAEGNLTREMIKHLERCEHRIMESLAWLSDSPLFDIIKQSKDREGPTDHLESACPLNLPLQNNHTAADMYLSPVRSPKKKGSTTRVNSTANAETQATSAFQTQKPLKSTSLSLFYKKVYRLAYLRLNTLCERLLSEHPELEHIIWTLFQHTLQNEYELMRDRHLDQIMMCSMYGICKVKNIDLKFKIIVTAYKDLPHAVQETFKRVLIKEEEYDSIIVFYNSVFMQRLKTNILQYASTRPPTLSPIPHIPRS
Experiment: fluorescence polarisation; 25 °C; unlabeled Rb^P titrated against 1.5 nM TMR-E2F1^TD or 7.5 nM TMR-E7^LxCxE; 25 mM Tris pH 8.0, 200 mM NaCl, 1 mM DTT, 0.1% Tween-20; 2 min incubation; quadratic fit; apparent Kd for the variants, Kd for WT
Conditions: both partners purified
pKd: −log10 of the molar value. No end group written: not given here. TMR = tetramethyl rhodamine dye
measured.metric: pKd

{"columns": ["binder", "measured.metric", "recorded.result"],
 "data": [
  ["DLYCYEQLN (also: TMR label, position not given here, source: synthetic peptide, bought: GenScript) [TMR-E7^LxCxE, LxCxE peptide of the E7 oncoprotein from HPV]", "pKd", 8.40],
  ["{TMR}-GEGIRDLFDCDFGDLTPLD (also called E2F^TD; source: synthetic peptide, bought: GenScript) [TMR-E2F1^TD, peptide of the E2F1 transactivation domain]", "pKd", 7.43]
]}
